# Test system: SNB-75
# assay-comment: NCI tumour cell line growth inhibition, 48 h
Activity calls are given as the source filed them. Cut-off read from the data, not from the text of the source: active = GI50 up to about 1.1 µM and inactive = higher.
Give your call using only these classes: active, inactive

Solved entries (count: 8):
1. N#Cc1c(=O)c2ccccc2n2ccccc12    inactive
2. COc1ccc(N2C(=O)C3c4[nH]c5ccc(F)cc5c4C4CCC(c5ccccc5)CC4C3C2=O)cc1 (stereo unspecified)    inactive
3. CCNc1nc(N)c(C(=O)c2cccs2)s1    inactive
4. CCOc1ccc(NC(=O)/C(CC(=O)c2c[n+]([O-])c3ccccc3[n+]2[O-])=N\OCCCc2ccccc2)cc1    inactive
5. Cc1cc2c(=O)cc(-c3ccncc3)oc2c(C(N)=O)c1C    inactive
6. CCOP(=O)(OCC)OC(C#N)c1ccc(-c2ccccc2)cc1 (stereo unspecified)    inactive
7. C/C(=N\NC(=S)NC(CCC(=O)O)C(=O)O)c1cnccn1 (stereo unspecified)    inactive
8. CC1=C(/C(C)=N/NS(=O)(=O)c2ccc(C)cc2)Sc2ccccc2N1    inactive

Exercise: Would you mind telling me which call this test gave `COc1cc2cc3c4cc(OC)c(OC)cc4cc[n+]3cc2cc1OC` ?
Key: inactive

Exercise: Next up: `Cc1ccc2c(=O)cc(-c3cccc(F)c3)[nH]c2n1`
Key: active

Exercise: Next up: `COc1cc2c(cc1OC)[C@]1(O)C(=O)c3ccc4c(c3O[C@@H]1CO2)C[C@H](C(C)(C)O)O4`
Key: inactive

* * *

# Test system: U-251
# assay-comment: NCI tumour cell line growth inhibition, 48 h
Calls of active or inactive are those of the source. Rule as the data show it: active = GI50 up to about 1.1 µM and inactive = higher.
measure-name: GI50

1. O=C(NCCCCCCNC(=O)c1cc(-c2ccccc2)nc2ccccc12)c1cc(-c2ccccc2)nc2ccccc12    88.3 µM (inactive)
2. COc1ccc(-c2nc3cc(F)ccc3s2)cc1O    30.1 µM (inactive)
3. Cc1ccc(C)n1-n1c(-c2ccccc2)n[nH]c1=O    > 100 µM (inactive)

Could I get GI50 for every one of these entries?
1. CC1=C(C(=O)Nc2cccc(Cl)c2)C(c2ccccc2O)C(C(=O)Nc2cccc(Cl)c2)=C(C)N1
2. Cc1cc2c(=O)cc(-c3ccncc3)oc2c(C(N)=O)c1C
3. O=C1CC[C@H]2CNC(=O)C[C@H]2C1
4. Cc1cc(N(CCC#N)CCC#N)ccc1/C=C1N=C(/C=C\c2ccccc2)N(NC(=O)CC(=O)Nc2ccccc2Cl)C\1=O

Key:
1: 19.9 µM (inactive); 2: > 100 µM (inactive); 3: > 100 µM (inactive); 4: > 100 µM (inactive)

Could I get GI50 for every one of these entries?
1. CC(=O)CC1CCC(=O)CCC(=O)OC(CC(C)=O)CCC(=O)CCC(=O)O1 (stereo unspecified)
2. NS(=O)(=O)c1nnc(NC(=O)CCC(=O)O)s1
3. COc1cccc(-c2cc(O)c3cc(OC)c(OC)cc3n2)c1
4. CCOC(=O)N1CCN(c2ccc3ccc(N)nc3n2)CC1

Key:
["> 100 µM (inactive)", "> 100 µM (inactive)", "60.5 µM (inactive)", "> 100 µM (inactive)"]

* * *

# Test system: MDA-MB-435
# assay-comment: NCI tumour cell line growth inhibition, 48 h
Counter-ions that a name gives are not always drawn. Active and inactive are the calls of the source. No stated cut-off is given here; in the data, active = GI50 up to about 1.1 µM and inactive = higher.
Give your call using only these classes: class 1 (active), class 0 (inactive)

Solved entries (count: 6):
1) COC(=O)CCc1ccc2c(c1)CC1(C2)Cc2ccc3c(c2C1)CCC3 (stereo not drawn)    class 0
2) Cc1cccc(-c2cc(O)c3cccnc3n2)c1    class 1
3) Cc1cccc(/C=N/NC(=S)N2CCCC2)n1    class 1
4) Cc1cnc2sn(-c3ccc([N+](=O)[O-])cc3)c(=O)c2c1    class 0
5) C[n+]1c(-c2ccc(/C=N/Nc3ccnc(N/N=C/c4ccc(-c5cn6ccsc6[n+]5C)cc4)n3)cc2)cn2ccsc21    class 0
6) NCCc1cc(O)c(O)cc1O [OXIDOPAMINE HYDROCHLORIDE]    class 0

Exercise: Would you mind telling me which call this test gave `COc1cc2c(cc1OCCCOS(C)(=O)=O)N=C[C@@H]1CCCN1C2=O` ?
Key: class 0

Exercise: Next up: CN(C)P(=O)(Oc1ccc(CC(NC(=O)OCc2ccccc2)C(=O)OCc2ccccc2)cc1)N(C)C (stereo not drawn)
Key: class 0
